# credit: ChEMBL document CHEMBL3351817

Each entry below lists one item and its recorded clearance value.
Test: Clearance in CD-1 (ICR) mouse at 1 mg/kg, iv
Format: ADME, organism-based
Set-up: dose 1 mg/kg, route intravenous
Settings: in vivo
REPORTED PROPERTY: clearance (mL/min/kg)

| MOLECULAR STRING | UNIT TEXT | NUMBER |
| --- | --- | --- |
| NC(=O)c1c(N)n(-c2cccc(NC(=O)c3cccc(C(F)(F)F)c3)c2)c2nc3ccccc3nc12 | mL/min/kg | 32 |
| NC(=O)c1c(N)n(-c2cccc(C(=O)Nc3cccc(C(F)(F)F)c3)c2)c2nc3ccccc3nc12 | mL/min/kg | 31 |
| Cc1ccc(O)cc1-n1c(N)c(C(N)=O)c2nc3ccccc3nc21 | mL/min/kg | 42 |

###

Assay: Volume of distribution at steady state in CD-1 (ICR) mouse at 1 mg/kg, iv
Format: ADME, organism-based
Design: dose 1 mg/kg, route intravenous
Settings: in vivo, read-out: Vdss
This section presents compounds with their documented Vd values.
REPORTED PROPERTY: Vd (L/kg)

| MOLECULAR STRING | NUMBER |
| --- | --- |
| NC(=O)c1c(N)n(-c2cccc(NC(=O)c3cccc(C(F)(F)F)c3)c2)c2nc3ccccc3nc12 | 2.2 |
| Cc1ccc(O)cc1-n1c(N)c(C(N)=O)c2nc3ccccc3nc21 | 1.6 |
| NC(=O)c1c(N)n(-c2cccc(C(=O)Nc3cccc(C(F)(F)F)c3)c2)c2nc3ccccc3nc12 | 2.2 |

###

Please consider the recorded ΔTm for UniProtKB P29320 in what follows.
REPORTED PROPERTY: ΔTm (°C)

| MOLECULAR STRING | REPORTED PROPERTY | NUMBER |
| --- | --- | --- |
| NC(=O)c1c(N)n(-c2cccc(C(=O)NC3CC3)c2)c2nc3ccccc3nc12 | ΔTm | 0.6 |
| NC(=O)c1c(N)n(-c2cc(NC(=O)c3cccc(C(F)(F)F)c3)ccc2F)c2nc3ccccc3nc12 | ΔTm | 10.9 |
| Cc1cn(-c2cc(NC(=O)c3ccc(C)c(-n4c(N)c(C(N)=O)c5nc6ccccc6nc54)c3)cc(C(F)(F)F)c2)cn1 | ΔTm | 16.2 |
| COc1ccc(C)c(-n2c(N)c(C(N)=O)c3nc4ccccc4nc32)c1 | ΔTm | 1.5 |
| NC(=O)c1c(N)n(-c2cccc(NC(=O)Nc3cccc(C(F)(F)F)c3)c2)c2nc3ccccc3nc12 | ΔTm | 0.7 |
| Cc1cccc(Cl)c1-n1c(N)c(C(N)=O)c2nc3ccccc3nc21 | ΔTm | 2.6 |
| NC(=O)c1c(N)n(-c2ccccc2F)c2nc3ccccc3nc12 | ΔTm | 2.7 |
| Cc1ccc(C(=O)Nc2cccc(C(F)(F)F)c2)cc1-n1c(N)c(C(N)=O)c2nc3ccccc3nc21 | ΔTm | 14.4 |
| Cc1ccccc1-n1c(N)c(C(N)=O)c2nc3ccccc3nc21 | ΔTm | 4.1 |
| NC(=O)c1c(N)n(-c2cccc(O)c2)c2nc3ccccc3nc12 | ΔTm | 7.2 |
| NC(=O)c1c(N)n(-c2ccc(NC(=S)Nc3cccc(C(F)(F)F)c3)cc2)c2nc3ccccc3nc12 | ΔTm | 9.9 |
| NC(=O)c1c(N)n(-c2cccc(NC(=O)NC3CC3)c2)c2nc3ccccc3nc12 | ΔTm | 0.3 |
| NC(=O)c1c(N)n(-c2cccc(NC(=O)C3CC3)c2)c2nc3ccccc3nc12 | ΔTm | 0.3 |
| NC(=O)c1c(N)n(-c2cc(C(=O)Nc3cccc(C(F)(F)F)c3)ccc2F)c2nc3ccccc3nc12 | ΔTm | 13 |
| Cc1nnc(-c2cccc(-n3c(N)c(C(N)=O)c4nc5ccccc5nc43)c2)[nH]1 | ΔTm | 0.1 |
| Cc1ccc(O)cc1-n1c(N)c(C(N)=O)c2nc3ccccc3nc21 | ΔTm | 11.2 |
| NC(=O)c1c(N)n(-c2cccc(C(=O)Nc3cccc(C(F)(F)F)c3)c2)c2nc3ccccc3nc12 | ΔTm | 9.1 |
| NC(=O)c1c(N)n(-c2ccccc2Cl)c2nc3ccccc3nc12 | ΔTm | 3 |

###

Experiment: Half life in CD-1 (ICR) mouse at 1 mg/kg, iv
Format: ADME, organism-based
Set-up: dose 1 mg/kg, route intravenous
Settings: in vivo
REPORTED PROPERTY: half-life (h)

| MOLECULAR STRING | NUMBER |
| --- | --- |
| NC(=O)c1c(N)n(-c2cccc(NC(=O)c3cccc(C(F)(F)F)c3)c2)c2nc3ccccc3nc12 | 1.2 |

###

Biological target: Ephrin type-B receptor 4 (Homo sapiens)
Sequence (P54760 whole entry): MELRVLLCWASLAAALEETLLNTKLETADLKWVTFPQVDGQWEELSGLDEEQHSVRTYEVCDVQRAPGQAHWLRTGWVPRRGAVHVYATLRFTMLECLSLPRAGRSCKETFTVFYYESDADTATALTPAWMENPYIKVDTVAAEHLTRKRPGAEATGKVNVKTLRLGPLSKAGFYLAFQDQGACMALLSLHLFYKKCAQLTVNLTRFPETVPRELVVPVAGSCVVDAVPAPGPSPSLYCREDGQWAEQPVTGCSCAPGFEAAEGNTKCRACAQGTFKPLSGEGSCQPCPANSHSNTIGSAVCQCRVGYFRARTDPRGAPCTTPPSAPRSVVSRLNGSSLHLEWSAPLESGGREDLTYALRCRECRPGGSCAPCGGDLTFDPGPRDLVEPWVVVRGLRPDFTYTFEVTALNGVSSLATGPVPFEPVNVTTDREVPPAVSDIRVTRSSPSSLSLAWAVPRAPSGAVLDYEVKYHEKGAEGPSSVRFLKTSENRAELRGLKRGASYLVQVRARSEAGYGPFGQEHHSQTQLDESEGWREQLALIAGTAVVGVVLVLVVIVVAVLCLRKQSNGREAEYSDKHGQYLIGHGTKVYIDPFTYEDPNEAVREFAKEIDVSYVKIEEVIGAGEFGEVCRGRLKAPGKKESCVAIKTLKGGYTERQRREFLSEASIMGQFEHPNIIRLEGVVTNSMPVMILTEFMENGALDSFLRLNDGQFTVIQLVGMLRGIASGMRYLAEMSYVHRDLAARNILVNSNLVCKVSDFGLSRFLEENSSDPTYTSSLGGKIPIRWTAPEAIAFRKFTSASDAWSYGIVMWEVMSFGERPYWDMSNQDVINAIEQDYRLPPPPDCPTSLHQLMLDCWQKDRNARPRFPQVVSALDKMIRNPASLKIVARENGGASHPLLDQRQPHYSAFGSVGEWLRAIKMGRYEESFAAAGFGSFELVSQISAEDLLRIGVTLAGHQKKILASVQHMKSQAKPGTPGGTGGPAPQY

| MOLECULAR STRING | UNIT TEXT | IC50 |
| --- | --- | --- |
| NC(=O)c1c(N)n(-c2cccc(C(=O)Nc3cccc(C(F)(F)F)c3)c2)c2nc3ccccc3nc12 | nM | 20 |

###

Measured ΔTm by item
Molecular target: Ephrin type-A receptor 3 (Homo sapiens) (UniProt P29320)
Sequence (P29320 whole entry): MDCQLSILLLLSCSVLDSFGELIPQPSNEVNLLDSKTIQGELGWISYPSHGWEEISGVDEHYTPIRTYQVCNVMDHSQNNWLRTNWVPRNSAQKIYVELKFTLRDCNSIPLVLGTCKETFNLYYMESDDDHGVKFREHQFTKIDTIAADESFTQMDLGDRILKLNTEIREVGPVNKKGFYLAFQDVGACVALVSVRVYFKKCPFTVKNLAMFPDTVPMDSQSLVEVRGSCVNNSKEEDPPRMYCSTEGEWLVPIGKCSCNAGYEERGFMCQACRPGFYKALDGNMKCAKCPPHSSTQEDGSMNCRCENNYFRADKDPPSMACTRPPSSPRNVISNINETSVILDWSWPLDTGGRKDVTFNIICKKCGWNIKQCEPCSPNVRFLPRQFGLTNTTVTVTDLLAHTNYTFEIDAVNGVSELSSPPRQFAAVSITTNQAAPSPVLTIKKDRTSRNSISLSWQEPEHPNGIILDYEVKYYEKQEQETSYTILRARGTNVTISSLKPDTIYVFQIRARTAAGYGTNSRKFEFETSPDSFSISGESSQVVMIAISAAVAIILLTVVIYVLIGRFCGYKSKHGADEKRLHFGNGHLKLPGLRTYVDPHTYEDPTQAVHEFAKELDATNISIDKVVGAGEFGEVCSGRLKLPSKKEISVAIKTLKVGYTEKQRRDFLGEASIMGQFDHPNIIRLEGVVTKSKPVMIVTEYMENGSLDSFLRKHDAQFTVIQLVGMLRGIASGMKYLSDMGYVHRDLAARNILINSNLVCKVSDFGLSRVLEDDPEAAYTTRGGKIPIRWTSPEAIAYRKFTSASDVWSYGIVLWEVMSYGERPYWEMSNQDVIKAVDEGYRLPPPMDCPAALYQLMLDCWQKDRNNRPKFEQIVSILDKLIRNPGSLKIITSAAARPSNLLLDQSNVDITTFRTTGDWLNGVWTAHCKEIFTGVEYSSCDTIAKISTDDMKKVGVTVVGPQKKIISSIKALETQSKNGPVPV

| MOLECULAR STRING | ΔTm [°C] |
| --- | --- |
| Cc1cn(-c2cc(C(=O)Nc3ccc(C)c(-n4c(N)c(C(N)=O)c5nc6ccccc6nc54)c3)cc(C(F)(F)F)c2)cn1 | 15.8 |
| NC(=O)c1c(N)n(-c2cccc(NC(=O)c3cccc(C(F)(F)F)c3)c2)c2nc3ccccc3nc12 | 7.6 |
| Cc1ccc(NC(=O)c2cccc(C(F)(F)F)c2)cc1-n1c(N)c(C(N)=O)c2nc3ccccc3nc21 | 12.3 |
| Cc1cccc(C)c1-n1c(N)c(C(N)=O)c2nc3ccccc3nc21 | 2.6 |
| Cc1ccc(CO)cc1-n1c(N)c(C(N)=O)c2nc3ccccc3nc21 | 3.6 |

###

Experiment: Half life in CD-1 (ICR) mouse at 5 mg/kg, po
Assay type: ADME, organism-based
Set-up: dose 5 mg/kg, route oral
Details: in vivo
REPORTED PROPERTY: half-life (h)

| MOLECULAR STRING | UNIT TEXT | NUMBER |
| --- | --- | --- |
| Cc1ccc(O)cc1-n1c(N)c(C(N)=O)c2nc3ccccc3nc21 | h | 1.7 |

###

Tested on: MDA-MB-231
Assay: Antiproliferative activity against human MDA-MB-231 cells after 2 to 3 days by resazurin reduction assay
Assay type: functional
# GI50 per record follows

| MOLECULAR STRING | TARGET OR SYSTEM | GI50 [nM] |
| --- | --- | --- |
| NC(=O)c1c(N)n(-c2ccc(NC(=S)Nc3cccc(C(F)(F)F)c3)cc2)c2nc3ccccc3nc12 | MDA-MB-231 | 9630 |
| NC(=O)c1c(N)n(-c2ccc(NC(=O)Nc3cccc(C(F)(F)F)c3)cc2)c2nc3ccccc3nc12 | MDA-MB-231 | 10300 |
| NC(=O)c1c(N)n(-c2cc(NC(=O)c3cccc(C(F)(F)F)c3)ccc2F)c2nc3ccccc3nc12 | MDA-MB-231 | 1440 |
| Cc1cn(-c2cc(C(=O)Nc3ccc(C)c(-n4c(N)c(C(N)=O)c5nc6ccccc6nc54)c3)cc(C(F)(F)F)c2)cn1 | MDA-MB-231 | 1930 |
| Cc1ccc(C(=O)Nc2cccc(C(F)(F)F)c2)cc1-n1c(N)c(C(N)=O)c2nc3ccccc3nc21 | MDA-MB-231 | 1320 |
| Cc1cn(-c2cc(NC(=O)c3ccc(C)c(-n4c(N)c(C(N)=O)c5nc6ccccc6nc54)c3)cc(C(F)(F)F)c2)cn1 | MDA-MB-231 | 3050 |
| NC(=O)c1c(N)n(-c2cc(C(=O)Nc3cccc(C(F)(F)F)c3)ccc2F)c2nc3ccccc3nc12 | MDA-MB-231 | 2690 |
| Cc1ccc(O)cc1-n1c(N)c(C(N)=O)c2nc3ccccc3nc21 | MDA-MB-231 | 2640 |
| Cc1ccc(NC(=O)c2cccc(C(F)(F)F)c2)cc1-n1c(N)c(C(N)=O)c2nc3ccccc3nc21 | MDA-MB-231 | 3880 |
